The reported numbers originate from patent US6277860A.

# Tested on: S. aureus 01A1105
# assay-details: MIC by serial agar dilution method, S. aureus 01A1105
# Format: cell-based, Staphylococcus aureus
# measurement-context: Staphylococcus aureus, 01A1105, read-out: MIC (minimum inhibitory concentration)
In this section, each of the compounds is paired with its reported MIC.

// worked examples, MIC included
{"compound": "CN(C)C1C(=O)C(C(N)=O)=C(O)C2(O)C(=O)C3=C(O)c4c(O)cccc4C(C)(O)C3CC12 (stereo not shown)", "MIC": "128 µg/mL"}
{"compound": "O=C(O)c1cn(C2CC2)c2cc(N3CCNCC3)c(F)cc2c1=O", "MIC": "> 32 µg/mL"}
{"compound": "CC[C@H]1OC(=O)[C@H](C)[C@@H](O[C@H]2C[C@@](C)(OC)[C@@H](O)[C@H](C)O2)[C@H](C)[C@@H](O[C@@H]2O[C@H](C)C[C@H](N(C)C)[C@H]2O)[C@](C)(O)C[C@@H](C)C(=O)[C@H](C)[C@@H](O)[C@]1(C)O", "MIC": "> 256 µg/mL"}

// moving on: another record for MIC
Any idea what MIC was measured for CC1(C)S[C@@H]2[C@H](NC(=O)Cc3ccccc3)C(=O)N2[C@H]1C(=O)O ?
64 µg/mL
